test: solubility of flavonoids in naturally occurring deep eutectic solvents; assay type: physicochemical; conditions: organic solvent or mixture, deep eutectic solvent Glucose + Choline chloride; read-out: Solubility in Glucose + Choline chloride
ASSAY READOUT: solubility (µg/mL)
Output spec: scalar in µg/mL, unitless text.

[ask] Please give the documented solubility of C[C@@H]1O[C@@H](Oc2c(-c3ccc(O)c(O)c3)oc3cc(O)cc(O)c3c2=O)[C@H](O)[C@H](O)[C@H]1O [Quercitrin, quercetin-3-O-rhamnoside]
[reply] 7810

---

assay: solubility data in some typical Des at 40° C.; assay type: physicochemical; details: water, solvent H2O, n = 3, read-out: solubility in H2O
ASSAY READOUT: solubility (µg/mL)
Output spec: scalar in µg/mL, unitless text.

[ask] Please give the documented solubility of C[C@@H]1O[C@@H](OC[C@H]2O[C@@H](Oc3c(-c4ccc(O)c(O)c4)oc4cc(O)cc(O)c4c3=O)[C@H](O)[C@@H](O)[C@@H]2O)[C@H](O)[C@H](O)[C@H]1O [rutin, quercetin-3-O-rhanmoglucoside]
[reply] 28

---

assay: solubility of flavonoids in naturally occurring deep eutectic solvents; format: physicochemical; conditions: organic solvent or mixture, Solubility in Sucrose + Choline chloride
ASSAY READOUT: solubility (µg/mL)
Output spec: scalar in µg/mL, unitless text.

[ask] Please give the documented solubility of C[C@@H]1O[C@@H](OC[C@H]2O[C@@H](Oc3c(-c4ccc(O)c(O)c4)oc4cc(O)cc(O)c4c3=O)[C@H](O)[C@@H](O)[C@@H]2O)[C@H](O)[C@H](O)[C@H]1O [rutin, quercetin-3-O-rhanmoglucoside]
[reply] 2410

---

assay: solubility data in some typical Des at 40° C.; format: physicochemical; conditions: deep eutectic solvent GCH, organic solvent or mixture, solvent GCH (Glc:Ch:H2O 1:2.5:2.5), n = 3, read-out: solubility in GCH
Reported solubility values are given for each entry in this list.
Output spec: scalar in mg/mL, unitless text.

C[C@@H]1O[C@@H](OC[C@H]2O[C@@H](Oc3c(-c4ccc(O)c(O)c4)oc4cc(O)cc(O)c4c3=O)[C@H](O)[C@@H](O)[C@@H]2O)[C@H](O)[C@H](O)[C@H]1O [rutin, quercetin-3-O-rhanmoglucoside]	122

[ask] Please give the documented solubility of O=c1c(O)c(-c2ccc(O)c(O)c2)oc2cc(O)cc(O)c12
[reply] 20.1

---

Test: solubility of flavonoids in naturally occurring deep eutectic solvents
Type: physicochemical
Details: water; read-out: Solubility in Water
Protocol: First the solubility of natural products, which are not soluble in water, was evaluated in a few selected natural deep eutectic solvents. Several flavonoids were chosen as the natural water-insoluble products, because they are one of the most abundant water-insoluble plant secondary metabolites. Up to now more than 500 flavonoids have been known. Most of these flavonoids occur in their glycosides forms (bounded to a sugar molecule) in plants. […]
ASSAY READOUT: solubility (µg/mL)
Output spec: scalar in µg/mL, unitless text.

[ask] Please give the documented solubility of C[C@@H]1O[C@@H](Oc2c(-c3ccc(O)c(O)c3)oc3cc(O)cc(O)c3c2=O)[C@H](O)[C@H](O)[C@H]1O [Quercitrin, quercetin-3-O-rhamnoside]
[reply] 159

---

assay: solubility data in some typical Des at 40° C.; assay type: physicochemical; conditions: deep eutectic solvent PdCH, organic solvent or mixture, solvent PdCH (1,2Prop:Ch:H20 1:1:1), n = 3, read-out: solubility in PdCH
Reported solubility values are given for each entry in this list.
Output spec: scalar in mg/mL, unitless text.

C[C@@H]1O[C@@H](OC[C@H]2O[C@@H](Oc3c(-c4ccc(O)c(O)c4)oc4cc(O)cc(O)c4c3=O)[C@H](O)[C@@H](O)[C@@H]2O)[C@H](O)[C@H](O)[C@H]1O [rutin, quercetin-3-O-rhanmoglucoside]	353
CC(=O)O[C@H]1C(=O)[C@@]2(C)[C@H]([C@H](OC(=O)c3ccccc3)[C@]3(O)C[C@H](OC(=O)[C@H](O)[C@@H](NC(=O)c4ccccc4)c4ccccc4)C(C)=C1C3(C)C)[C@]1(OC(C)=O)CO[C@@H]1C[C@@H]2O	11.7

[ask] Please give the documented solubility of O=c1c(O)c(-c2ccc(O)c(O)c2)oc2cc(O)cc(O)c12
[reply] 205
